# tgt: Lyn enzyme (Homo sapiens (Human), UniProt P07948)
# Sequence (P07948 whole entry): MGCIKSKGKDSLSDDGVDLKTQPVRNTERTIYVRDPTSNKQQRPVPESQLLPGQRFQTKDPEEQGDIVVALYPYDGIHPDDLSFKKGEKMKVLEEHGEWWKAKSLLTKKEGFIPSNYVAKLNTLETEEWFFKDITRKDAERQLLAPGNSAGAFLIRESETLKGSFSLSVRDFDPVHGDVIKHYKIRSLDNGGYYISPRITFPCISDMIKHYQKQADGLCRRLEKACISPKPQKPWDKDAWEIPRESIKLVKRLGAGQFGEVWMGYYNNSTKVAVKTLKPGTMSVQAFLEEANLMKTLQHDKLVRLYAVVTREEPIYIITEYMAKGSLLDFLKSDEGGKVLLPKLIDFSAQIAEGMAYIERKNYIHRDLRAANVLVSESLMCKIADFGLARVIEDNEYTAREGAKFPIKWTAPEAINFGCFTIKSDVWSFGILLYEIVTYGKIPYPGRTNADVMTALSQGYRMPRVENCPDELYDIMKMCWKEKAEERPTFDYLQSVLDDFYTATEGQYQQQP
# protocol_description: Lyn enzyme activity, IMAP fluorescence polarization assay
pEC50: −log10 of the molar value.
metric: pEC50

Note to self: pEC50 recorded for CC#CC(=O)N1CCC[C@H]1c1nc(-c2ccc(C(=O)Nc3nccs3)cc2)c2c(N)nccn12 [Example 60] was 6.00 to 7.00

====

Provide the recorded EC50 Btk activity values for the entries that follow.
# tgt: Btk enzyme (His-Btk) (Homo sapiens (Human), UniProt Q06187)
# Sequence (Q06187 whole entry): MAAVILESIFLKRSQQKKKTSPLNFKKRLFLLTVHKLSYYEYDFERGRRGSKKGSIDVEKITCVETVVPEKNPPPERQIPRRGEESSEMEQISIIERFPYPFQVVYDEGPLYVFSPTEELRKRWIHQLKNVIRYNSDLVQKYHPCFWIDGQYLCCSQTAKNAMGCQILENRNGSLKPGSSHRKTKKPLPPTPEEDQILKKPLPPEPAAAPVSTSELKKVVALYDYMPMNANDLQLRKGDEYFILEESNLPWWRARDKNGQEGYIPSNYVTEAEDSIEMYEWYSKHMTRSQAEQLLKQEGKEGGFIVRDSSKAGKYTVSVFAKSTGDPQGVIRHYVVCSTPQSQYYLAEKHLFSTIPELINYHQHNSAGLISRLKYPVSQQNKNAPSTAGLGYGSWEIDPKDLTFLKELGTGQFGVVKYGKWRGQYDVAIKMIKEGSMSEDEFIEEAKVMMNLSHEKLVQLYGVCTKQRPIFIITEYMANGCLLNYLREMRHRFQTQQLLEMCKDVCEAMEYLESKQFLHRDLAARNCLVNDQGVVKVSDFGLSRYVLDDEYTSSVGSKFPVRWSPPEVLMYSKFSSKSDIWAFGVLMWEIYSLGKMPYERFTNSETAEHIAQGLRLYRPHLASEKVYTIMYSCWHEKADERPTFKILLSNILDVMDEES
# protocol_description: Btk enzyme activity, IMAP fluorescence polarization assay
# study_conditions: 60 min pre-incubation, 5 μM ATP, bin bound in nM

Example entries begin here.
CC#CC(=O)N1CCCC[C@H]1c1nc(-c2ccc(C(=O)Nc3ccon3)cc2)c2c(N)nccn12 : <100 nM
COC/C=C/C(=O)N1CCC[C@H]1c1nc(-c2ccc(C(=O)Nc3ccccn3)c(OC)c2)c2c(N)nccn12 : <100 nM
COCC#CC(=O)N1CCC[C@H]1c1nc(-c2ccc(C(=O)Nc3ccccn3)cc2)c2c(N)nccn12 : <100 nM

Give measured EC50 Btk activity values for every item shown.
1. Nc1nccn2c([C@@H]3CCCN3C(=O)c3ccnc(Cl)n3)nc(-c3ccc(C(=O)Nc4nc5c(s4)CCCC5)cc3)c12
2. Nc1nccn2c([C@@H]3CCCCN3C(=O)c3ccnc(Cl)n3)nc(-c3ccc(C(=O)Nc4cc(F)ccn4)cc3)c12
3. CN(C)C/C=C/C(=O)N1CCC[C@H]1c1nc(-c2ccc(C(=O)Nc3cc(F)ccn3)cc2)c2c(N)nccn12
4. COC/C=C/C(=O)N1CCC[C@H]1c1nc(-c2ccc(C(=O)Nc3cc(C)ccn3)cc2)c2c(N)nccn12

<100 nM
<100 nM
<100 nM
<100 nM
